The measured values listed here are drawn from ChEMBL document CHEMBL1155138.

The compounds listed here are annotated with their Activity.
Test system: Chryseobacterium indologenes
Assay: Ratio of Kcat to Km of Chryseobacterium indologenes metallo-beta-lactamase IND-5 expressed in Escherichia coli BL21(DE3) assessed as substrate hydrolysis relative to control
Set-up: scale not given: the % may be the effect or the level left
Answer with a number only, understood to be in %.

Answered examples (2):
CC1(C)S[C@@H]2[C@H](NC(=O)Cc3ccccc3)C(=O)N2[C@H]1C(=O)O: 100
CO/N=C(\C(=O)N[C@@H]1C(=O)N2C(C(=O)O)=C(COC(C)=O)CS[C@H]12)c1csc(N)n1: 3.7

Now for the compound whose Activity we want.
Problem: Requested field: Activity. Item: C[C@@H](O)[C@H]1C(=O)N2C(C(=O)O)=C(SCCNC=N)C[C@H]12 [IMIPENEM ANHYDROUS]
Solution: 2.8

----------
Tested on: Chryseobacterium indologenes
Experiment: Ratio of Kcat to Km of Chryseobacterium indologenes metallo-beta-lactamase IND-5 expressed in Escherichia coli BL21(DE3) assessed as substrate hydrolysis
EXPERIMENTAL ENDPOINT: kcat/Km (M⁻¹ s⁻¹)
Answer with a number only, understood to be in M⁻¹ s⁻¹.

O=C(Cc1cccs1)N[C@@H]1C(=O)N2C(C(=O)O)=C(/C=C/c3ccc([N+](=O)[O-])cc3[N+](=O)[O-])CS[C@H]12: 550000
C[C@@H](O)[C@H]1C(=O)N2C(C(=O)O)=C(S[C@@H]3CN[C@H](C(=O)N(C)C)C3)[C@H](C)[C@H]12: 15000
CCN1CCN(C(=O)N[C@@H](C(=O)N[C@@H]2C(=O)N3[C@@H]2SC(C)(C)[C@@H]3C(=O)O)c2ccccc2)C(=O)C1=O: 39000
CO/N=C(\C(=O)N[C@@H]1C(=O)N2C(C(=O)O)=C(COC(C)=O)CS[C@H]12)c1csc(N)n1: 31000

Problem: Requested field: kcat/Km. Item: "CC1(C)S[C@@H]2[C@H](NC(=O)[C@H](N)c3ccccc3)C(=O)N2[C@H]1C(=O)O"
Solution: 69000

Problem: Requested field: kcat/Km. Item: "CC1(C)[C@H](C(=O)O)N2C(=O)C[C@H]2S1(=O)=O"
Solution: 2500

Problem: Requested field: kcat/Km. Item: C[C@@H](O)[C@H]1C(=O)N2C(C(=O)O)=C(SCCNC=N)C[C@H]12 [IMIPENEM ANHYDROUS]
Solution: 24000

Problem: Requested field: kcat/Km. Item: "Cc1nnc(SCC2=C(C(=O)O)N3C(=O)[C@@H](NC(=O)Cn4cnnn4)[C@H]3SC2)s1"
Solution: 18000

Problem: Requested field: kcat/Km. Item: "CC1(C)S[C@@H]2[C@H](NC(=O)Cc3ccccc3)C(=O)N2[C@H]1C(=O)O"
Solution: 840000

Problem: Requested field: kcat/Km. Item: CC1(C)S[C@@H]2[C@H](NC(=O)C(C(=O)O)c3ccccc3)C(=O)N2[C@H]1C(=O)O (stereo not given in full)
Solution: 53000

----------
System: Chryseobacterium indologenes
Experiment: Activity of Chryseobacterium indologenes metallo-beta-lactamase IND-5 expressed in Escherichia coli BL21(DE3) assessed as substrate hydrolysis
Label scheme for kcat: lower than 4 s⁻¹ is criterion not met, 4 s⁻¹ and above is criterion met.

Worked examples, 2 compounds total:
Cc1nnc(SCC2=C(C(=O)O)N3C(=O)[C@@H](NC(=O)Cn4cnnn4)[C@H]3SC2)s1: criterion not met
C[C@@H](O)[C@H]1C(=O)N2C(C(=O)O)=C(S[C@@H]3CN[C@H](C(=O)N(C)C)C3)[C@H](C)[C@H]12: criterion met

Field: next compound
Problem: Is it the case that "CO/N=C(\C(=O)N[C@@H]1C(=O)N2C(C(=O)O)=C(COC(C)=O)CS[C@H]12)c1csc(N)n1" has kcat reaching or exceeding 4 s⁻¹?
Solution: criterion not met

----------
The molecules listed here are annotated with their Km.
Tested on: Chryseobacterium indologenes
Assay: Activity of Chryseobacterium indologenes metallo-beta-lactamase IND-5 expressed in Escherichia coli BL21(DE3) assessed as substrate hydrolysis
Answer with a number only, understood to be in µM.

Answered examples (8):
CC1(C)S[C@@H]2[C@H](NC(=O)[C@H](N)c3ccccc3)C(=O)N2[C@H]1C(=O)O: 150
C[C@@H](O)[C@H]1C(=O)N2C(C(=O)O)=C(SCCNC=N)C[C@H]12 [IMIPENEM ANHYDROUS]: 300
CC1(C)[C@H](C(=O)O)N2C(=O)C[C@H]2S1(=O)=O: 1300
CO/N=C(\C(=O)N[C@@H]1C(=O)N2C(C(=O)O)=C(COC(C)=O)CS[C@H]12)c1csc(N)n1: 49
CC1(C)S[C@@H]2[C@H](NC(=O)Cc3ccccc3)C(=O)N2[C@H]1C(=O)O: 13
CCN1CCN(C(=O)N[C@@H](C(=O)N[C@@H]2C(=O)N3[C@@H]2SC(C)(C)[C@@H]3C(=O)O)c2ccccc2)C(=O)C1=O: 375
CC1(C)S[C@@H]2[C@H](NC(=O)C(C(=O)O)c3ccccc3)C(=O)N2[C@H]1C(=O)O (stereo not given in full): 320
C[C@@H](O)[C@H]1C(=O)N2C(C(=O)O)=C(S[C@@H]3CN[C@H](C(=O)N(C)C)C3)[C@H](C)[C@H]12: 280

Problem: Requested field: Km. Item: "O=C(Cc1cccs1)N[C@@H]1C(=O)N2C(C(=O)O)=C(/C=C/c3ccc([N+](=O)[O-])cc3[N+](=O)[O-])CS[C@H]12"
Solution: 8

Problem: Requested field: Km. Item: "Cc1nnc(SCC2=C(C(=O)O)N3C(=O)[C@@H](NC(=O)Cn4cnnn4)[C@H]3SC2)s1"
Solution: 25

----------
Tested on: Chryseobacterium indologenes
Assay: Ratio of Kcat to Km of Chryseobacterium indologenes metallo-beta-lactamase IND-5 expressed in Escherichia coli BL21(DE3) assessed as substrate hydrolysis relative to control
Design: scale not given: the % may be the effect or the level left
The compounds listed here are annotated with their Activity.
Answer with a number only, understood to be in %.

C[C@@H](O)[C@H]1C(=O)N2C(C(=O)O)=C(S[C@@H]3CN[C@H](C(=O)N(C)C)C3)[C@H](C)[C@H]12: 1.8

Problem: Requested field: Activity. Item: "CCN1CCN(C(=O)N[C@@H](C(=O)N[C@@H]2C(=O)N3[C@@H]2SC(C)(C)[C@@H]3C(=O)O)c2ccccc2)C(=O)C1=O"
Solution: 4.6

Problem: Requested field: Activity. Item: "CC1(C)S[C@@H]2[C@H](NC(=O)[C@H](N)c3ccccc3)C(=O)N2[C@H]1C(=O)O"
Solution: 8.2

Problem: Requested field: Activity. Item: "CC1(C)[C@H](C(=O)O)N2C(=O)C[C@H]2S1(=O)=O"
Solution: 0.3

Problem: Requested field: Activity. Item: "O=C(Cc1cccs1)N[C@@H]1C(=O)N2C(C(=O)O)=C(/C=C/c3ccc([N+](=O)[O-])cc3[N+](=O)[O-])CS[C@H]12"
Solution: 65

Problem: Requested field: Activity. Item: "Cc1nnc(SCC2=C(C(=O)O)N3C(=O)[C@@H](NC(=O)Cn4cnnn4)[C@H]3SC2)s1"
Solution: 2.1

Problem: Requested field: Activity. Item: CC1(C)S[C@@H]2[C@H](NC(=O)C(C(=O)O)c3ccccc3)C(=O)N2[C@H]1C(=O)O (some centres not stated)
Solution: 6.3

----------
The compounds listed here are annotated with their Activity.
Tested on: Escherichia coli
Test: Antimicrobial activity against Escherichia coli HB101 harboring pBC-IND-5 plasmid containing metallo-beta-lactamase IND5 assessed as drug level at which microbial resistance was observed by agar dilution method
Type: functional
Answer with a number only, understood to be in µg/mL.

Answered examples (5):
CC(C)(O/N=C(\C(=O)N[C@@H]1C(=O)N2C(C(=O)[O-])=C(C[n+]3ccccc3)CS[C@H]12)c1csc(N)n1)C(=O)O: 0.5
CO/N=C(\C(=O)N[C@@H]1C(=O)N2C(C(=O)O)=C(COC(C)=O)CS[C@H]12)c1csc(N)n1: 16
Cc1nnc(SCC2=C(C(=O)O)N3C(=O)[C@@H](NC(=O)Cn4cnnn4)[C@H]3SC2)s1: 64
CO/N=C(\C(=O)N[C@@H]1C(=O)N2C(C(=O)[O-])=C(C[N+]3(C)CCCC3)CS[C@H]12)c1csc(N)n1: 0.5
C[C@@H](O)[C@H]1C(=O)N2C(C(=O)O)=C(S[C@@H]3CN[C@H](C(=O)N(C)C)C3)[C@H](C)[C@H]12: 1

Problem: Requested field: Activity. Item: "CCN1CCN(C(=O)N[C@@H](C(=O)N[C@@H]2C(=O)N3[C@@H]2SC(C)(C)[C@@H]3C(=O)O)c2ccccc2)C(=O)C1=O"
Solution: 32

Problem: Requested field: Activity. Item: C[C@@H](O)[C@H]1C(=O)N2C(C(=O)O)=C(SCCNC=N)C[C@H]12 [IMIPENEM ANHYDROUS]
Solution: 1
